- assayTarget: UniProtKB Q8NEB9
- Sequence (Q8NEB9 whole entry): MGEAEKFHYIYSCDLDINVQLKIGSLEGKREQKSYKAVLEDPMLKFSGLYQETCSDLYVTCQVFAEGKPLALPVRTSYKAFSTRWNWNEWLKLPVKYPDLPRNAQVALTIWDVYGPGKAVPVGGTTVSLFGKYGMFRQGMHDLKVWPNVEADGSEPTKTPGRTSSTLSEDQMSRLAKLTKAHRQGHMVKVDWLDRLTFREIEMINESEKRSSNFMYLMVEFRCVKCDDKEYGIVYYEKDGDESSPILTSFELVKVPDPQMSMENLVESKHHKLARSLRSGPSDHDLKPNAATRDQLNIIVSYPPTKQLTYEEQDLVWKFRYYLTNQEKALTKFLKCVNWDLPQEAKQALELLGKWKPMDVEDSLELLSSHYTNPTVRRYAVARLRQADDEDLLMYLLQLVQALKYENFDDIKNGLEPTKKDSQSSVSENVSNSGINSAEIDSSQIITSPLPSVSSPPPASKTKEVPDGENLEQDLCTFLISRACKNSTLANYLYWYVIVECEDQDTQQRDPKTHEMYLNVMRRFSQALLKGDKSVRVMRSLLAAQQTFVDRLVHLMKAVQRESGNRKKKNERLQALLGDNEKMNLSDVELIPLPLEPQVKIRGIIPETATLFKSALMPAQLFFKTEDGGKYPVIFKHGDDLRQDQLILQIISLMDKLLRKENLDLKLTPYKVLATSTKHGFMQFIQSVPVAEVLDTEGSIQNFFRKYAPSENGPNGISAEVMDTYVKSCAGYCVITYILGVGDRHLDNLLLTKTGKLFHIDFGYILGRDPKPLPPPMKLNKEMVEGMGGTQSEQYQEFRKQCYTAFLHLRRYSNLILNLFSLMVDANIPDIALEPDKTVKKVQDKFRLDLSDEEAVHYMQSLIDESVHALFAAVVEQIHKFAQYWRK
- assayProtocol: Human VPS34 enzyme assay (Adapta TR-FRET)
- Assay type: biochemical
- experimentalContext: compound concentration 1.11 μM; read-out: Percent Inhibition
quantity: inhibition at 1.11 µM (%)
Give bare numbers, in %.

Some solved entries appear below for comparison.
{"compound": "CC(=O)Nc1cc(-c2cncc(N)c2)ccn1 [Compound I-139]", "quantity": "inhibition at 1.11 µM", "measurementUnits": "%", "val": 61}
{"compound": "CC(=O)Nc1cc(-c2cnc(C)c(NS(=O)(=O)CC(F)F)c2)ccn1 [Compound I-412]", "quantity": "inhibition at 1.11 µM", "measurementUnits": "%", "val": 97}
{"compound": "COc1ncc(-c2ccnc(NC(C)=O)c2)c(C)c1NS(=O)(=O)N(C)C [Compound I-268]", "quantity": "inhibition at 1.11 µM", "measurementUnits": "%", "val": 100}
{"compound": "CC(=O)Nc1cc(-c2cnc(C)c(OS(=O)(=O)c3ccc(F)cc3F)c2)ccn1 [Compound I-478]", "quantity": "inhibition at 1.11 µM", "measurementUnits": "%", "val": 84}
{"compound": "Cc1nccc(Nc2cc(-c3cnc(C)c(C(=O)N(C)C)c3)ccn2)n1 [Compound I-266]", "quantity": "inhibition at 1.11 µM", "measurementUnits": "%", "val": 100}

Dear colleague, could you send me inhibition at 1.11 µM for each of the items below? Thanks.
1. Cc1nccc(Nc2cc(-c3cnc(Cl)c(NS(=O)(=O)c4ccc(F)cc4F)c3C)ccn2)n1 [Compound I-299]
2. CC(=O)Nc1cc(-c2cnc(Cl)c(NS(=O)(=O)c3ccccc3F)c2C)ccn1 [Compound I-251]

98
97

Dear colleague, could you send me inhibition at 1.11 µM for each of the items below? Thanks.
1. CC(=O)Nc1cc(-c2cnc(C)c(C(=O)Nc3ccc(F)cc3F)c2)ccn1 [Compound I-431]
2. CC(=O)Nc1cc(-c2cnc(N)c(C(=O)NC(=N)N)c2)ccn1 [Compound I-409]
3. Cc1nccc(Nc2cc(-c3cnc(C)c(C(=O)N4CCC4)c3)ccn2)n1 [Compound I-304]
4. Cc1nccc(Nc2cc(-c3cnc4c(c3)C(=O)NCC4)ccn2)n1 [Compound I-406]
5. CC(=O)Nc1cc(-c2cnc3cn[nH]c3c2)ccn1 [Compound I-116]

74
82
96
80
68

Dear colleague, could you send me inhibition at 1.11 µM for each of the items below? Thanks.
1. Cc1ncc(-c2ccnc(Nc3ccnc(C4CC4)n3)c2)cc1NC(=O)N1CC(F)(F)C1 [Compound I-368]
2. CC(=O)Nc1cc(-c2cnc3c(c2)S(=O)(=O)N[C@H](c2ccccc2)CO3)ccn1 [Compound I-420]

96
59

response.value for CC(=O)Nc1cc(-c2cnc(C)c(NS(=O)(=O)c3cccc(F)c3F)c2)ccn1 [Compound I-377] (field: inhibition at 1.11 µM) = 95
